The values you see were collected from patent US20240382597A1.

- protocol.summary: solubility in water of anti-inflammatory agents, alone and in formulations comprising MSM
- Assay type: physicochemical
- experimental.context: without MSM (starting value of the increase)
reported.endpoint: solubility in water

1. O=C(O)Cc1ccccc1Nc1c(Cl)cccc1Cl [Diclofenac, diclofenac]    0.004 mg per ml of water
2. CC(C)Cc1ccc(C(C)C(=O)O)cc1 (stereo not shown) [Ibuprofen, ibuprofen]    insoluble
3. COC(=O)c1ccccc1O [Methyl salicylate, methyl salicylate]    0.00065 mg per ml of water
4. C[C@@H]1C[C@H]2[C@@H]3CCC4=CC(=O)C=C[C@]4(C)[C@@]3(F)[C@@H](O)C[C@]2(C)[C@@]1(O)C(=O)CO [Dexamethsone, dexamethasone]    insoluble
